# target.of.assay: PKC alpha kinase (Homo sapiens)
# experimental.details: PKC alpha kinase inhibition, coupled-enzyme NADH absorbance assay (Ki)
# Format: biochemical
# run.conditions: 130 μM ATP, 4.5 nM PKC alpha, 30° C.; read-out: Ki PKC alpha
pKi: −log10 of the molar value.
Each entry below carries its reported pKi.
experimental.endpoint: pKi

- molecule: "CCCc1cc(-c2ccnc3[nH]ncc23)cc(C2(CCN)CCC2)c1"
  target.of.assay: "PKC alpha kinase (Homo sapiens)"
  result: "< 5.92"
- molecule: "CCSc1cc(-c2ccnc3[nH]ncc23)cc(C(C)(C#N)CC)c1 (stereo not drawn)"
  target.of.assay: "PKC alpha kinase (Homo sapiens)"
  result: "> 5.55"
- molecule: "CCCC(C)(C#N)c1cccc(-c2ccnc3[nH]ncc23)c1 (stereo not drawn)"
  target.of.assay: "PKC alpha kinase (Homo sapiens)"
  result: "> 5.55"
- molecule: "CCC(C)(C#N)c1cc(C)cc(-c2ccnc3[nH]ncc23)c1 (stereo not drawn)"
  target.of.assay: "PKC alpha kinase (Homo sapiens)"
  result: "> 5.55"
- molecule: "CCC(CN)c1cccc(-c2ccnc3[nH]nc(C(F)(F)F)c23)c1 (stereo not drawn)"
  target.of.assay: "PKC alpha kinase (Homo sapiens)"
  result: "> 6.30"
- molecule: "CC(C)(N)CCc1cc(-c2ccnc3[nH]nc(C(F)(F)F)c23)cc(C2(C#N)CC2)c1"
  target.of.assay: "PKC alpha kinase (Homo sapiens)"
  result: "< 5.92"
- molecule: "CC(C)(CN)c1cc(Br)cc(-c2ccnc3[nH]ncc23)c1"
  target.of.assay: "PKC alpha kinase (Homo sapiens)"
  result: "> 5.55"
- molecule: "N#CC1(c2cc(-c3ccnc4[nH]ncc34)cc(C(F)(F)CCN)c2)CC1"
  target.of.assay: "PKC alpha kinase (Homo sapiens)"
  result: "> 6.30"
- molecule: "COCC[C@@](C)(CN)c1cccc(-c2ccnc3[nH]nc(C(F)(F)F)c23)c1"
  target.of.assay: "PKC alpha kinase (Homo sapiens)"
  result: "> 6.30"

* * *

# target.of.assay: PKC delta kinase (Homo sapiens)
# Sequence (Q05655 whole entry): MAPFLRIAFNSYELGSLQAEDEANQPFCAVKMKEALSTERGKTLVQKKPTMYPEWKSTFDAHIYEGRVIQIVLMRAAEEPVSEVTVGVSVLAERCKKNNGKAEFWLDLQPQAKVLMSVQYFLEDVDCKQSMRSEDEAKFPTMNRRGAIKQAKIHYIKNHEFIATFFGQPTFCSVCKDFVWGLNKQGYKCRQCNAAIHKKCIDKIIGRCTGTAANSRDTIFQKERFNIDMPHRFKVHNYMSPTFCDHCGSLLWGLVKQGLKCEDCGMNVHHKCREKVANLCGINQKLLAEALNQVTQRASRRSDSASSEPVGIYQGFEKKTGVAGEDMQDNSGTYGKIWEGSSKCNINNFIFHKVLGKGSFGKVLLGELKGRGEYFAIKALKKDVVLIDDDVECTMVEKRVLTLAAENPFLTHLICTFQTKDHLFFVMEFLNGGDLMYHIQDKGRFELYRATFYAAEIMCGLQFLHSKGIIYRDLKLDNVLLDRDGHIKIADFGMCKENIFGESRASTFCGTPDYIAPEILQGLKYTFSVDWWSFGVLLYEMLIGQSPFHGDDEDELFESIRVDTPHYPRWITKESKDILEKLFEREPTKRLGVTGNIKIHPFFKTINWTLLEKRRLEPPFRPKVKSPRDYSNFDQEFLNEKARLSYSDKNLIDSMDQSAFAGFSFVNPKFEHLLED
# experimental.details: PKC delta kinase inhibition, coupled-enzyme NADH absorbance assay (Ki)
# Assay type: biochemical
# run.conditions: 150 μM ATP, 46 nM PKC delta, 30° C.; read-out: Ki PKC delta
# Procedure: An assay buffer solution was prepared which consisted of 100 mM HEPES (pH 7.5), 10 mM MgCl2, 25 mM NaCl, 0.1 mM EDTA and 0.01% Brij. […] To 16 μL of this enzyme buffer, in a 384 well plate, was added 1 μL of VRT stock solution in DMSO. The mixture was allowed to equilibrate for 10 mins at 30° C. […] Ki values were calculated from initial rate data by non-linear regression using the Prism software package (Prism 4.0a, Graphpad Software, San Diego, Calif.).
pKi: −log10 of the molar value.
Each entry below carries its reported pKi.
experimental.endpoint: pKi

- molecule: "CCC1(c2cccc(-c3ccnc4[nH]ncc34)c2)CCNC1 (stereo not drawn)"
  experimental.endpoint: "pKi"
  result: "> 6.30"
- molecule: "CC(CN)(CC1CC1)c1cccc(-c2ccnc3[nH]ncc23)c1 (stereo not drawn)"
  experimental.endpoint: "pKi"
  result: "> 7.30"
- molecule: "N#C[C@]1(c2cccc(-c3ccnc4[nH]ncc34)c2)C[C@@H](N)C1"
  experimental.endpoint: "pKi"
  result: "> 5.55"
- molecule: "N#C[C@]1(c2cccc(-c3ccnc4[nH]ncc34)c2)C[C@H](N)C1"
  experimental.endpoint: "pKi"
  result: "> 6.30"
- molecule: "N#CC1(c2cccc(-c3ccnc4[nH]ncc34)c2)CCNCC1"
  experimental.endpoint: "pKi"
  result: "> 5.55"
- molecule: "N#CC1(c2cc(-c3ccnc4[nH]nc(C(F)(F)F)c34)cc(C(F)(F)CN)c2)CC1"
  experimental.endpoint: "pKi"
  result: "> 6.30"
- molecule: "CCC(O)c1cccc(-c2ccnc3[nH]ncc23)c1 (stereo not drawn)"
  experimental.endpoint: "pKi"
  result: "< 5.55"
- molecule: "N#C[C@]1(c2cccc(-c3ccnc4[nH]ncc34)c2)C[C@@H](O)C1"
  experimental.endpoint: "pKi"
  result: "< 5.70"
- molecule: "NCC1(c2cccc(-c3ccnc4[nH]ncc34)c2)CCCCC1"
  experimental.endpoint: "pKi"
  result: "> 6.30"
